Provide the recorded 8OG:A repair function score for the entries that follow.
B1: library; numbered along this chain (parent)
chain: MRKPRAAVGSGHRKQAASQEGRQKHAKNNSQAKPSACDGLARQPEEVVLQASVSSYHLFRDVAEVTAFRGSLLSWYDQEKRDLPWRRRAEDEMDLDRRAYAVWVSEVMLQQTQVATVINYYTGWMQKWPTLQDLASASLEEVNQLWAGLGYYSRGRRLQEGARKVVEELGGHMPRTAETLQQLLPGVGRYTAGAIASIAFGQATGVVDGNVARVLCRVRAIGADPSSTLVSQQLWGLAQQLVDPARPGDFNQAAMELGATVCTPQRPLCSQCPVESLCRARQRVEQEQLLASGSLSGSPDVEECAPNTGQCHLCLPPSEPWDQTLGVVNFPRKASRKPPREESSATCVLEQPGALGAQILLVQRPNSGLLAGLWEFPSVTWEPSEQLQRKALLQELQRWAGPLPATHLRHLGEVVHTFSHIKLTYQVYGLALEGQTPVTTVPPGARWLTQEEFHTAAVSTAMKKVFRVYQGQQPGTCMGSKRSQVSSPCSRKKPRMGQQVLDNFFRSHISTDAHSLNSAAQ

- Variants of: B1
- procedureText: 8OG:A repair function score (normalized; synonymous = 0, nonsense = -1) (normalized log-likelihood score); higher = more repair activity (WT-like);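 note: cells sorted at 72 h after reporter transfection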
- conditionNotes: with 8OG:A DNA repair reporter (GFP) in HEK-293 MUTYH KO cells

Worked examples, 5 variants total:
{"mutationList": "S510F", "reportedResult": -0.00526}
{"mutationList": "V458T", "reportedResult": -0.214}
{"mutationList": "A67D", "reportedResult": 0.00532}
{"mutationList": "Q182E", "reportedResult": -0.0278}
{"mutationList": "E178G", "reportedResult": -0.126}

Please state, for each entry, its recorded 8OG:A repair function score.
1. T204A
2. Q113M

1. -0.0766
2. -0.593

For each listed entry, give its 8OG:A repair function score.
1. H57E
2. Y190M
3. L289T
4. E413V

1: -0.74; 2: -0.762; 3: 0.0028; 4: -0.059

For "T260C" , what is its reported 8OG:A repair function score?
-0.129

Hey, just so you know, these numbers are from the supplement of paper PMC11908140.
